test system: Malme-3M; assay: Growth inhibition of human MALME-3M cells after 48 hrs by SRB assay; type: functional
Activity calls are given as the source filed them. The calls are words filed in the database; no cut-off is given here.
quantity_kind: GI50

As a guide, the following entries are already answered.
| molecule | GI50 |
| --- | --- |
| COc1ccc2nc(NC(=O)COc3cc(/C=C\c4cc(OC)c(OC)c(OC)c4)ccc3OC)sc2c1 | inactive |
| COc1ccc(/C=C\c2cc(OC)c(OC)c(OC)c2)cc1OCC(=O)Nc1nc2ccc(C(F)(F)F)cc2s1 | inactive |
| COc1ccc(/C=C\c2cc(OC)c(OC)c(OC)c2)cc1O [COMBRETASTATIN A4] | 0.019 µM |
| COc1ccc(/C=C\c2cc(OC)c(OC)c(OC)c2)cc1OCC(=O)Nc1nc2ccc(F)cc2s1 | 5.22 µM |
| COc1ccc(/C=C\c2cc(OC)c(OC)c(OC)c2)cc1OCC(=O)Nc1ccc2nc(C)sc2c1 | 2.84 µM |

From here, focus on the item given below.
Data request: Requested read-out: GI50. Entry: COc1ccc(/C=C\c2cc(OC)c(OC)c(OC)c2)cc1OCC(=O)Nc1nc2ccccc2s1
Data returned: 1.99 µM
